Please respond with reported inhibition of growth at 5 µM for every item in the list.
- System: P. falciparum 3D7
- Assay summary: DAPI stain fluorescent high content imaging assay, P. falciparum 3D7 (confirmatory screen, Avery)
- Test conditions: Plasmodium falciparum, 3D7, read-out: percent_inh @ 5 uM
One number for each entry, in %.

Record inhibition of growth at 5 µM per entry; entries follow.
1. O=C(CCc1ccccc1)c1ccccc1OCC(O)CN1CCCCC1 (centres unmarked)
2. O=C(Nc1ccc(CN2CCOCC2)cc1)c1ccc(-c2cc(Cl)ccc2Cl)o1
3. COc1ccc(CNC2CCN(c3ccc(NC(=O)c4cccc(Cl)c4)cc3)CC2)cc1OC
4. Cc1c(C)n(CC(O)CNC2CCCCC2C)c2ccccc12 (centres unmarked)
5. COc1ccc(NC(=O)C2c3ccccc3C(=O)N(CC(C)C)C2c2cccs2)cc1 (centres unmarked)

1. 97
2. 97
3. 97
4. 96
5. 100
